# Test system: UO-31
# assay.comment: NCI tumour cell line growth inhibition, 48 h
Calls of active or inactive are those of the source. Rule as the data show it: active = GI50 up to about 1.1 µM and inactive = higher.
experimental.endpoint: GI50

Example results:
compound	experimental.endpoint	value.observed
COc1ccccc1Cn1c2c(c3c(C(=O)NCCN(C)C)c(O)ccc31)C(=O)c1ccccc1C2=O	GI50	1.75 µM (inactive)
COC1=CCC=C(C[C@@H]2NCCc3cc(OC)c(OC)cc32)C1	GI50	> 100 µM (inactive)
C#CCn1c(=O)c(C#N)c(O)c2cc3ccccc3nc21	GI50	> 100 µM (inactive)
Cc1cn2c(/C=N/NC(=N)N)c(-c3cccc([N+](=O)[O-])c3)nc2s1	GI50	5.62 µM (inactive)
Cc1cc(S(=O)(=O)Nc2nc(N)nc(N3N=CCC3C)n2)c(S)cc1Cl (centres undefined)	GI50	> 10 µM (inactive)
COC(=O)C1C=CCC2CCCCC21N1CCCC1 (centres undefined)	GI50	> 100 µM (inactive)

Look up GI50 with UO-31 for this compound: O=C(O)C(C(=O)O)P(=S)(S)c1ccccc1 (centres undefined)
> 100 µM (inactive)

Look up GI50 with UO-31 for this compound: O=C(O)C1C2CCC(O2)C1C(=O)N1CCCCC1 (centres undefined)
19.9 µM (inactive)

Look up GI50 with UO-31 for this compound: Cc1ccc(NC(=S)SCCC(=O)O)cc1
> 100 µM (inactive)

* * *

This section presents compounds with their documented GI50 values.
# Test system: DU-145
# assay.comment: NCI tumour cell line growth inhibition, 48 h
Active and inactive are the calls of the source. Rule as the data show it: active = GI50 up to about 1.1 µM and inactive = higher. Square brackets hold non-standard residues; d marks the D form. Peptide text beside a SMILES is read from it. * marks the point of attachment. Boc = CC(C)(C)OC(=O)*; OBn = c1ccc(CO*)cc1

Example results:
compound	tgt	GI50
CCCn1c(C23CC4CC(CC(C4)C2)C3)nc2ccc(Cl)cc2c1=O	DU-145	27.9 µM (inactive)
C=CCn1c(N)c(C#N)c(C#N)c1CCC	DU-145	> 100 µM (inactive)
O=C(O)c1cc(C(=O)C(=O)c2cc(C(=O)O)c(O)c3ccccc23)c2ccccc2c1O	DU-145	> 100 µM (inactive)
CO[C@@]12C[C@H](CNC(=O)c3ccc[nH]3)O[C@@H]1NC(=O)N2	DU-145	> 100 µM (inactive)
CCOC(=O)c1ccc(/N=C2/C(=S)N(c3ccc(C(=O)OCC)cc3)C(=N)N2/N=C/c2ccccc2)cc1	DU-145	37.3 µM (inactive)
C=C1CC2(OC1=O)c1ccccc1C=Cc1ccccc12	DU-145	11.5 µM (inactive)
O=C1c2ccccc2C(=O)c2sc(Nc3cc(Cl)ccc3Cl)nc21	DU-145	8.57 µM (inactive)
Cc1nc2c(O)cc3c4c(n(Cc5ccccc5)c3c2nc1C)C(=O)CCC4	DU-145	7.13 µM (inactive)
Cc1c(O)c(OC2OC(CO)C(O)C(O)C2O)cc2c1CC[C@@H]1C2(C)C(=O)C[C@]2(C)[C@@H]([C@@](C)(O)C(O)/C=C/C(C)(C)O)[C@H](O)C[C@@]12C (stereo partly drawn)	DU-145	> 100 µM (inactive)
Cc1cc(C)nc(NS(=O)(=O)c2ccc(NC(=O)c3c4ccccc4nc4ccccc34)cc2)n1	DU-145	93.1 µM (inactive)

Could you tell me which GI50 is on file for O=C(O)C(=Cc1ccc(-c2ccc([N+](=O)[O-])cc2)o1)C(=O)O ?
> 100 µM (inactive)

Could you tell me which GI50 is on file for O=c1oc(-c2ccc(O)cc2)cc2cc(O)ccc12 ?
39 µM (inactive)

Could you tell me which GI50 is on file for C[C@@H](NC(=O)CNC(=O)OC(C)(C)C)C(=O)N[C@@H](Cc1ccccc1)C(=O)OCc1ccccc1 (Boc-Gly-[dA]-Phe-OBn) ?
> 100 µM (inactive)
